measurement-target: B-cat-Halo (NanoBRET construct) (UniProt P35222)
Sequence (P35222 whole entry): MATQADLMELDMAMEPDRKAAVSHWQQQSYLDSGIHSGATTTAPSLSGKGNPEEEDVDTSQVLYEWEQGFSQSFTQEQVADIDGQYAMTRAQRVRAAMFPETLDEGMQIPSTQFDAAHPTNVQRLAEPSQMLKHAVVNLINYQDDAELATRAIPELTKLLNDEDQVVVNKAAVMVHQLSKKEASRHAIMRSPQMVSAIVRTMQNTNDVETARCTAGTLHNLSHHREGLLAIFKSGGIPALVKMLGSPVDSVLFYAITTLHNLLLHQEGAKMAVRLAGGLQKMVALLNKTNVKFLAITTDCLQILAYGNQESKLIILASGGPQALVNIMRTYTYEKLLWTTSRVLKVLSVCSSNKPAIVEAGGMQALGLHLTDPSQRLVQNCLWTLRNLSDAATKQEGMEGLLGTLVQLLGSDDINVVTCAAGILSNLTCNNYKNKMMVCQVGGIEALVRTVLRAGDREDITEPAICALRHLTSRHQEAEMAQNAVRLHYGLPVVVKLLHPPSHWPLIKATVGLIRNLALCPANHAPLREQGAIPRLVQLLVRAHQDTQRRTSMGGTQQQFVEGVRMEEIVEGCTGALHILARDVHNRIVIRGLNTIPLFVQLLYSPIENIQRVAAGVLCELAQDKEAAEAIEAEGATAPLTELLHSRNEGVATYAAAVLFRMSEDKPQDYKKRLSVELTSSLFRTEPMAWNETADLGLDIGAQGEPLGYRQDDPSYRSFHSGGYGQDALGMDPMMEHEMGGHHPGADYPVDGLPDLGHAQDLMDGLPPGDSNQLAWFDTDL
test-protocol: NanoBRET Abs IC50; Bcat-Halo/TCF4-Luc in HEK293 cells, competitor TCF4-Luc
Starred links: 1 amine or outer side, 2 acyl side, 3 side chain; linkers in the order of their positions; H or OH if unused. Positions of bridges follow the written chain, without caps; N, C: chain ends. Non-standard residues stand in square brackets, D forms with d. Primed or numbered codes have the meaning given here. PyrS2″ = (S)-3-amino-1-((pent-4-en-1-yloxy)carbonyl)pyrrolidine-3-carboxylic acid (stapling residue), C=CCCCOC(=O)N1CC[C@@](N[*:1])(C(=O)[*:2])C1; B5(5) = 2,2-bis(4-pentenyl)glycine, 2-amino-2-(pent-4-en-1-yl)hept-6-enoic acid (stitching residue), C=CCCCC(CCCC=C)(N[*:1])C(=O)[*:2]; 2COOHF = (S)-2-(2-amino-2-carboxyethyl)benzoic acid, O=C([C@H](Cc1ccccc1C(=O)[*:3])N[*:1])[*:2]; Bta = N[C@@H](Cc1csc2ccccc12)C(=O)O; αAllylPro = C=CC[C@@]1(C(=O)O)CCCN1; tBuAla = CC(C)(C)C[C@H](N)C(=O)O; 3Thi = N[C@@H](Cc1ccsc1)C(=O)O; Thr(ol) = C[C@@H](O)[C@H](N)CO
assay-metric: IC50 (µM)

INSERT INTO measurements (binder, result) VALUES
  ('Ac-[αAllylPro]D[tBuAla][B5(5)]D[2COOHF]AAFF[PyrS2″][3Thi][Bta]S-NH2 (staple 1-4, 4-11) [I-1665]', 9.7);

I: Ac-[αAllylPro]D[tBuAla][B5(5)]D[2COOHF]AAFF[PyrS2″][3Thi][Bta]S-NH2 (staple 1-4, 4-11) [I-1664]
II: Ac-[αAllylPro]D[tBuAla][B5(5)]D[2COOHF]AAFF[PyrS2″][3Thi][Bta][Thr(ol)] (staple 1-4, 4-11; also: staple isomer, earlier-eluting HPLC peak) [I-1668]
Problem: Lower IC50: I or II ? Provide the label of your selected option as the answer.
Result: I
